# maps each entry to its abundance fitness
B1: Cytoplasmic polyadenylation element-binding protein 2, residues 513 to 575; numbered along this chain, Q7Z5Q1 (parent)
chain: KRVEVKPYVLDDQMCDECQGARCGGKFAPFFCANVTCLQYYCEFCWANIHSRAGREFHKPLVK

- Variants of: B1
- assay_summary: abundance fitness (aPCA) (normalised: wild type 0, dead -1); higher = more abundant; growth selection in yeast, the domain comes from the species named
- test_settings: Homo sapiens
Reply with the value as a number alone.

- variant_notation: "K1W"
  abundance fitness: -0.985
- variant_notation: "D16K"
  abundance fitness: 0.056
- variant_notation: "A21Q"
  abundance fitness: -0.141
- variant_notation: "E43G"
  abundance fitness: -0.179
- variant_notation: "V35R"
  abundance fitness: 0.077
- variant_notation: "D12W"
  abundance fitness: -0.225

Input: Read the entry R55V and write its reported abundance fitness.
Output: -0.1

Input: Find the measured abundance fitness of A47Q and report it.
Output: -0.01

Input: Report abundance fitness for G24M
Output: -0.275

Input: Give recorded abundance fitness. T36K
Output: -0.027

Input: Check the records and state abundance fitness for P60A
Output: -0.051
